This section presents binders with their documented specific binding MFI values.
- Measured target: T1, human TIM-3 on cells (human, UniProt Q8TDQ0 22-301)
- T1 construct: also called CHO-Tim3; rec CHOK1 cells expressing huTIM-3
- Protocol details: flow cytometry, human CD14+ monocytes donor3
Observed property: specific binding MFI

Binder: Tim3_0022 (antibody, V domains shown) VH: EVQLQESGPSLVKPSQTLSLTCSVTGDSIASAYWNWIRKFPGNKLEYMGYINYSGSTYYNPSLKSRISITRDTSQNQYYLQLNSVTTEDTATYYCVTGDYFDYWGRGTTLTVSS VL: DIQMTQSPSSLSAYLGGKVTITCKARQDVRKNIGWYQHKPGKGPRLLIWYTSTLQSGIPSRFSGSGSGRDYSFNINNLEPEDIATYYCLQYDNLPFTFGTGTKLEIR
Value observed: 1240 MFI

Binder: Tim3_0028 (antibody, V domains shown) VH: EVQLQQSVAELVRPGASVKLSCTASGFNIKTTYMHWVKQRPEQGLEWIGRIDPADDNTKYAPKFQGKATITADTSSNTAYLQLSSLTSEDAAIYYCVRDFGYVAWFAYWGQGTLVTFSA VL: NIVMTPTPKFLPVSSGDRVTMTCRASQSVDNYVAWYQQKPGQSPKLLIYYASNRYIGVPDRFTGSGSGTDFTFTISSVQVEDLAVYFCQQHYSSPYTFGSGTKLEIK
Value observed: 1610 MFI

Binder: Tim3_0016 (antibody, V domains shown, also called clone 0016) VH: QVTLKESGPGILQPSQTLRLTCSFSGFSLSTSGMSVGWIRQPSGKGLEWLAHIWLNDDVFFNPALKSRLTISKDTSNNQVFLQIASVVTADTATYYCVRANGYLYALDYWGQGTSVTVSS VL: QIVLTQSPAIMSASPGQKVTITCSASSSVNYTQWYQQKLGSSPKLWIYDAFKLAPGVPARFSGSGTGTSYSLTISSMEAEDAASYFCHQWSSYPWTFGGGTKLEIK
Value observed: 1690 MFI

Origin of values: patent US20210087291A1
